Source: ChEMBL document CHEMBL1157169

Each entry below carries its recorded inhibition.
tested on: Aorta; experiment: Nitric oxide radical scavenging activity in rat aortic strip assessed as inhibition of acetylcholine-induced vasorelaxation at 10 uM; type: functional, tissue-based

{"mol smiles": "CC1(C)N(O)C(c2ccco2)=[N+]([O-])C1(C)C", "inhibition, %": 20.2}
{"mol smiles": "N=C(N)NCCC[C@H](N)C(=O)NCC(=O)N[C@@H](CC(=O)O)C(=O)N[C@@H](CO)C(=O)O", "inhibition, %": 4.3}
{"mol smiles": "CC1(C)N(O)C(c2ccc(O)cc2)=[N+]([O-])C1(C)C", "inhibition, %": 73.1}
{"mol smiles": "CC1(C)N(O)C(c2ccc(OCCNC(=O)CC[C@H](N)C(=O)O)cc2)=[N+]([O-])C1(C)C", "inhibition, %": 72.4}
{"mol smiles": "CC1(C)N(O)C(c2ccc(OCCNC(=O)CC[C@H](N)C(=O)N[C@H](CS)C(=O)NCC(=O)O)cc2)=[N+]([O-])C1(C)C", "inhibition, %": 72.2}
